Data origin, for the record: ChEMBL document CHEMBL3580597

ASSAY TARGET: Bromodomain-containing protein 2 (Homo sapiens, UniProt P25440)
Sequence (P25440 whole entry, the tested form may be a part): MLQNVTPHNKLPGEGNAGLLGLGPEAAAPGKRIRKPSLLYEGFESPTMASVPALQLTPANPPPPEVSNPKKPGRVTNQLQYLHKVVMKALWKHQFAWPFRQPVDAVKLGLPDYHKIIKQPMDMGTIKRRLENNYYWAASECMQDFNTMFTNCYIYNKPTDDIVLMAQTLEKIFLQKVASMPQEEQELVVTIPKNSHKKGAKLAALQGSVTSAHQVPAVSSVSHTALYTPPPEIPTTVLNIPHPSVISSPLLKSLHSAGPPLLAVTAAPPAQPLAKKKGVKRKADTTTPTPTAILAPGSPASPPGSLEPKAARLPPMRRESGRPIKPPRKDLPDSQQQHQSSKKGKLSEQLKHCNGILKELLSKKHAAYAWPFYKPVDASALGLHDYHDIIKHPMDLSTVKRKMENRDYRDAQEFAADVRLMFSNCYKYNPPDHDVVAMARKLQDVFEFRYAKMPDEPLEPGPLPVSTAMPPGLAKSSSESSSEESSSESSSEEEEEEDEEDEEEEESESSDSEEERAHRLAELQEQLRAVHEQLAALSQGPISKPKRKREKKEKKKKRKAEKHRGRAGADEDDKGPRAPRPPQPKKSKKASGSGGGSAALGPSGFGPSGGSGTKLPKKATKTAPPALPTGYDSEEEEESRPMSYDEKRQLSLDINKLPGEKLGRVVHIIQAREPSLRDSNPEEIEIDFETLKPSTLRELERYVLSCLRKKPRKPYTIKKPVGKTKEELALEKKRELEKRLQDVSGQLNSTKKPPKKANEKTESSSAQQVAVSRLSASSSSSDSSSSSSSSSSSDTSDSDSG
ASSAY NOTES: Binding affinity to biotinylated BRD2 BD2 (349 to 460 amino acid residues) (unknown origin) expressed in Rosetta2 DE3 cells by bio-layer interferometry method
PROPERTY LABEL: Kd (nM)
Answers are plain numbers, in nM.

Looking for the measured Kd of `COc1cc2c(cc1-c1c(C)noc1C)[nH]c1ccnc(-c3c(C4CC4)n[nH]c3C)c12` , can you help?
29.6

====

Answer each item with its documented Ki.
ASSAY TARGET: Bromodomain-containing protein 4 (Homo sapiens)
ASSAY NOTES: Displacement of FAM-labeled ZBA248 from BRD4 BD2 (333 to 460 amino acid residues) (unknown origin) expressed in Rosetta2 DE3 cells after 30 mins by fluorescence polarization assay
One number for each entry, in µM.

Example compounds with recorded Ki:
INSERT INTO assay_data (molecule_smiles, property_label, recorded_measurement) VALUES
  ('CCc1noc(CC)c1-c1cc2[nH]c3ccnc(Cl)c3c2cc1OC', 'Ki', 8.32),
  ('CCc1n[nH]c(CC)c1-c1nccc2[nH]c3cc(-c4c(C)noc4C)c(OC)cc3c12', 'Ki', 0.0161),
  ('CCc1noc(C)c1-c1cc2[nH]c3ccnc(Cl)c3c2cc1OC', 'Ki', 0.478);

Consider the following items and state reported Ki for each.
1. COc1cc2c(cc1-c1c(C)noc1C)[nH]c1ccnc(-c3c(C)nn(-c4ccccc4)c3C)c12
2. COc1cc2c(cc1-c1c(C)nn(C)c1C)[nH]c1ccnc(Cl)c12
3. COc1cc2c(cc1-c1c(C)noc1C)[nH]c1ccnc(-c3c(C)noc3C)c12
4. COc1cc2c(cc1-c1c(C)n[nH]c1C)[nH]c1ccnc(Cl)c12
5. COc1cc2c(cc1-c1c(C)noc1C)[nH]c1ccnc(-c3c(C4CC4)n[nH]c3C)c12
6. CCc1onc(C)c1-c1cc2[nH]c3ccnc(Cl)c3c2cc1OC

[0.0981, 1.95, 0.0701, 0.867, 0.0122, 2.18]

====

ASSAY TARGET: Bromodomain-containing protein 3 (Homo sapiens, UniProt Q15059)
Sequence (Q15059 whole entry, the tested form may be a part): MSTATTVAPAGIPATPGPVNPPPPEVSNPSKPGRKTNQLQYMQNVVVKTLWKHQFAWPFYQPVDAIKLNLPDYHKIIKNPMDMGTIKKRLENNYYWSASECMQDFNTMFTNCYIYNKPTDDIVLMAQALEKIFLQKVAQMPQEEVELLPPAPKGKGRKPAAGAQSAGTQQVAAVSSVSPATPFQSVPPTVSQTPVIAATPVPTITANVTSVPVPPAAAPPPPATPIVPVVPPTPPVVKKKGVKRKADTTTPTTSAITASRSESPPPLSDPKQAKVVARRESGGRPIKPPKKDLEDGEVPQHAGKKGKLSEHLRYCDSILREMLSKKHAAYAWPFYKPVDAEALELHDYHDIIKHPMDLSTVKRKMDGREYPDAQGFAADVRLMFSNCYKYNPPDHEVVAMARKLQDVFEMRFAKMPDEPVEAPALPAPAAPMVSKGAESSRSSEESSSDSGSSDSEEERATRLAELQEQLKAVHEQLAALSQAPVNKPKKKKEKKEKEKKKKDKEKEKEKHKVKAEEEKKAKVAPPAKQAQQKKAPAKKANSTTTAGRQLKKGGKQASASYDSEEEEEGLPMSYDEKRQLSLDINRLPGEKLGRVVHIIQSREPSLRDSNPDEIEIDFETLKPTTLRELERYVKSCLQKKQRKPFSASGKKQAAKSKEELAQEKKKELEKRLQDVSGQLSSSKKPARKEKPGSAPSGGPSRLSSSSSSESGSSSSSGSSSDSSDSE
ASSAY NOTES: Displacement of FAM-labeled ZBA248 from BRD3 BD1 (24 to 144 amino acid residues) (unknown origin) expressed in Rosetta2 DE3 cells after 30 mins by fluorescence polarization assay
PROPERTY LABEL: Ki (nM)
Numbers only, in nM.

# query: Ki | item `COc1cc2c(cc1-c1c(C)noc1C)ncc1[nH]c(=O)n([C@H](C)c3ccccn3)c12` | system: Bromodomain-containing protein 3 (Homo sapiens, UniProt Q15059)
7.2

====

ASSAY TARGET: Bromodomain adjacent to zinc finger domain protein 2B (Homo sapiens)
Sequence (Q9UIF8 whole entry, the tested form may be a part): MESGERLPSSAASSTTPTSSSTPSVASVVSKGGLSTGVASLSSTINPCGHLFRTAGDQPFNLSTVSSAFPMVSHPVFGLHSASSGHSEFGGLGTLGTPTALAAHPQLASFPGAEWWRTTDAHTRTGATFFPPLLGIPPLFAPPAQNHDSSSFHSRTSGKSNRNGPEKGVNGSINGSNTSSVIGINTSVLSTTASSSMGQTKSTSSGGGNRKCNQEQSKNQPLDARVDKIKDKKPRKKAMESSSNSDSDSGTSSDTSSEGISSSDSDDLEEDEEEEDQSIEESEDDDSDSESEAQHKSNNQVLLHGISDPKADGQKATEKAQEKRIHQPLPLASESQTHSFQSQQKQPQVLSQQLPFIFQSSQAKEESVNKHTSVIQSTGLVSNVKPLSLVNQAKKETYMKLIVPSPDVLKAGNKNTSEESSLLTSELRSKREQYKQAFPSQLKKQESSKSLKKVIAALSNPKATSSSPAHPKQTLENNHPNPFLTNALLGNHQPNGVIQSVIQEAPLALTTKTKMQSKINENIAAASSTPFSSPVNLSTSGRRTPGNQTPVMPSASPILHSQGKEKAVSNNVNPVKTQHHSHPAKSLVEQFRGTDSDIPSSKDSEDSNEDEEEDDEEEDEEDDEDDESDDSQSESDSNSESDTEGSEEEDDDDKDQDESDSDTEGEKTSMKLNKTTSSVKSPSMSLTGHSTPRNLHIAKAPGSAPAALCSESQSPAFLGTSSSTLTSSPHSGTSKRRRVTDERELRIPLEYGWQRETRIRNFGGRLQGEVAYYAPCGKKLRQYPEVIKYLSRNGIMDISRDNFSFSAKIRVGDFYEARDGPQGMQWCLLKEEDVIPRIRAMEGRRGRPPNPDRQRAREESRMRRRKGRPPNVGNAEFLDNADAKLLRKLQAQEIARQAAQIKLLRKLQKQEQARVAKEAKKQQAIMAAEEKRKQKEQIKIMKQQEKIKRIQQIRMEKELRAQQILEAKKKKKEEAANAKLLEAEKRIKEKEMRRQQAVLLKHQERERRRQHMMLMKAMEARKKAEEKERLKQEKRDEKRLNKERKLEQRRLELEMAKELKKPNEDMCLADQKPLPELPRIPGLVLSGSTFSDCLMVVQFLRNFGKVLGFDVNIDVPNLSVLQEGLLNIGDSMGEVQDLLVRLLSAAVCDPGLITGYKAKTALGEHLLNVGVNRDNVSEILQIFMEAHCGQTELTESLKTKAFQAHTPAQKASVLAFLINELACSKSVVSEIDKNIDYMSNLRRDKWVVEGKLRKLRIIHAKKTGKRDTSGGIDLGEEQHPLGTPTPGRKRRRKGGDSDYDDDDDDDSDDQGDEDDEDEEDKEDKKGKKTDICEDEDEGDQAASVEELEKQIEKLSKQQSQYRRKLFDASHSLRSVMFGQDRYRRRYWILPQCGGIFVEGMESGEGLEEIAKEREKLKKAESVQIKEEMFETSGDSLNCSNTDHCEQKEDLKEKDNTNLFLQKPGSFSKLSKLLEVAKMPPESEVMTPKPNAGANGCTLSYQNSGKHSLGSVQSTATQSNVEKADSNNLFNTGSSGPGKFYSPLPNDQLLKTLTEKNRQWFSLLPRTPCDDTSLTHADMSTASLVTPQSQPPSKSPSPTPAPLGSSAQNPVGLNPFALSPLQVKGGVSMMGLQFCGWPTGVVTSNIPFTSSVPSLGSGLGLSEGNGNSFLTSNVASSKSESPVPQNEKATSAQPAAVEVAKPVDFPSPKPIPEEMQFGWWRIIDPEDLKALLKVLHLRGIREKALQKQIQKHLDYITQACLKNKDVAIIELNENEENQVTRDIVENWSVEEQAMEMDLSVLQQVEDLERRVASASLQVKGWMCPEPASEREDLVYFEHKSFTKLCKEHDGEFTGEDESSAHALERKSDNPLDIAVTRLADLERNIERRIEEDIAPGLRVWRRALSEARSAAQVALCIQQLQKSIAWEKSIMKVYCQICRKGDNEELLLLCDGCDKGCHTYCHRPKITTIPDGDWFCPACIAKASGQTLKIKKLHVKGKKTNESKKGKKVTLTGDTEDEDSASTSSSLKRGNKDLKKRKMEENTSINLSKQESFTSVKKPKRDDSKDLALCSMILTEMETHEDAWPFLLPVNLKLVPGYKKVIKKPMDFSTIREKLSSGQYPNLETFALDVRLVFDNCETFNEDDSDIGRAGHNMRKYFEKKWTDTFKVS
ASSAY NOTES: Binding affinity to biotinylated BAZ2B (2054 to 2168 amino acid residues) (unknown origin) expressed in Rosetta2 DE3 cells by bio-layer interferometry method
pKd: −log10 of the molar value.
PROPERTY LABEL: pKd

Returns the measured pKd for the input compound. Input: `COc1cc2c(cc1-c1c(C)noc1C)[nH]c1ccnc(-c3c(C4CC4)n[nH]c3C)c12`
< 5.00

====

ASSAY TARGET: Bromodomain-containing protein 4 (Homo sapiens)
ASSAY NOTES: biochemical
PROPERTY LABEL: Kd (nM)
Give bare numbers, in nM.

Need Kd of `COc1cc2c(cc1-c1c(C)noc1C)[nH]c1ccnc(-c3c(C4CC4)n[nH]c3C)c12` , thanks.
44.6
